# targetOrSystem: HLA-B*35:01
# assayExplanation: IEDB peptide-MHC binding, purified MHC/competitive/fluorescence; filed as Kd, often an IC50 or EC50 that approximates it; bounds were set here for any values at or beyond the usual limits of such assays
# conditionParameters: source organism: Candida albicans SC5314
observedProperty: pKd
// pKd: -log10(molar conc.)

What value of measured pKd is listed for RVYNNTARY ?
6.80

---

# targetOrSystem: HLA-B*18:01
# assayExplanation: IEDB peptide-MHC binding, purified MHC/direct/fluorescence; filed as Kd, often an IC50 or EC50 that approximates it; bounds were set here for any values at or beyond the usual limits of such assays
# conditionParameters: source organism: Mycobacterium tuberculosis
Kindly state pKd for each of the entries shown.
// pKd: -log10(molar conc.)

What value of measured pKd is listed for KPKLARGEL ?
5.59

Then RPRVAQLTF ?
6.98

---

# targetOrSystem: HLA-B*27:03
# assayExplanation: IEDB peptide-MHC binding, purified MHC/competitive/fluorescence; filed as Kd, often an IC50 or EC50 that approximates it; bounds were set here for any values at or beyond the usual limits of such assays
# conditionParameters: source organism: Araucaria virus
observedProperty: Kd

What value of measured Kd is listed for AQKLATKPV ?
≥ 20 µM

---

# targetOrSystem: HLA-A*24:02
# assayExplanation: IEDB peptide-MHC binding, purified MHC/direct/fluorescence; filed as Kd, often an IC50 or EC50 that approximates it; bounds were set here for any values at or beyond the usual limits of such assays
# conditionParameters: source organism: Salmonella enterica subsp. enterica serovar Typhimurium
observedProperty: Kd

Form field - read-out: Kd; system: HLA-A*24:02; submitted item: YSDIFNNVL
≥ 20 µM

---

# targetOrSystem: HLA-B*45:01
# assayExplanation: IEDB peptide-MHC binding, purified MHC/competitive/radioactivity; filed as Kd, often an IC50 or EC50 that approximates it; bounds were set here for any values at or beyond the usual limits of such assays
# conditionParameters: source organism: Mammarenavirus brazilense
observedProperty: Kd (nM)
Answer in nM, number only, no unit symbol.

Form field - read-out: Kd; system: HLA-B*45:01; submitted item: EELSTLYEAL
2080

Then RELLGYCVSL ?
4850

Then EEVPNIIHEA ?
269

---

# targetOrSystem: HLA-B*15:01
# assayExplanation: IEDB peptide-MHC binding, purified MHC/competitive/fluorescence; filed as Kd, often an IC50 or EC50 that approximates it; bounds were set here for any values at or beyond the usual limits of such assays
# conditionParameters: source organism: Shigella flexneri 5 str. 8401
observedProperty: Kd

What value of measured Kd is listed for MFAAGLILY ?
≥ 20 µM

---

# targetOrSystem: HLA-A*29:02
# assayExplanation: IEDB peptide-MHC binding, purified MHC/competitive/radioactivity; filed as Kd, often an IC50 or EC50 that approximates it; bounds were set here for any values at or beyond the usual limits of such assays
# conditionParameters: source organism: Mammarenavirus tacaribeense
observedProperty: Kd

What value of measured Kd is listed for YCDPKRFFL ?
≥ 78.9 µM

---

# targetOrSystem: HLA-B*44:02
# assayExplanation: IEDB peptide-MHC binding, purified MHC/direct/fluorescence; filed as Kd, often an IC50 or EC50 that approximates it; bounds were set here for any values at or beyond the usual limits of such assays
# conditionParameters: source organism: Yersinia pestis Nepal516
observedProperty: Kd

What value of measured Kd is listed for ETIFTVLAL ?
≥ 20 µM

---

# targetOrSystem: HLA-A*03:01
# assayExplanation: IEDB peptide-MHC binding, purified MHC/direct/fluorescence; filed as Kd, often an IC50 or EC50 that approximates it; bounds were set here for any values at or beyond the usual limits of such assays
# conditionParameters: source organism: Salmonella enterica subsp. enterica serovar Berta
observedProperty: Kd

What value of measured Kd is listed for HQDDGQPRL ?
≥ 20 µM

---

# targetOrSystem: HLA-B*39:01
# assayExplanation: IEDB peptide-MHC binding, purified MHC/competitive/fluorescence; filed as Kd, often an IC50 or EC50 that approximates it; bounds were set here for any values at or beyond the usual limits of such assays
# conditionParameters: source organism: Orthohantavirus sinnombreense
pKd: −log10 of the molar value.
observedProperty: pKd

What value of measured pKd is listed for YRTLGVFRY ?
≤ 4.70

---

# targetOrSystem: HLA-A*24:02
# assayExplanation: IEDB peptide-MHC binding, purified MHC/competitive/radioactivity; filed as Kd, often an IC50 or EC50 that approximates it; bounds were set here for any values at or beyond the usual limits of such assays
# conditionParameters: source organism: Mammarenavirus machupoense
Kindly state Kd for each of the entries shown.

What value of measured Kd is listed for CTNFKTQLV ?
≥ 77.5 µM

Then EMICFHEFL ?
≥ 40.9 µM

Then YKELCDAVY ?
≥ 77.5 µM

Then QCGDPSSFEY ?
≥ 70.3 µM

---

# targetOrSystem: HLA-B*44:02
# assayExplanation: IEDB peptide-MHC binding, purified MHC/competitive/radioactivity; filed as Kd, often an IC50 or EC50 that approximates it; bounds were set here for any values at or beyond the usual limits of such assays
# conditionParameters: source organism: Mammarenavirus guanaritoense
observedProperty: Kd

What value of measured Kd is listed for GEQVDLGPVL ?
≥ 32.7 µM

---

# targetOrSystem: HLA-A*03:01
# assayExplanation: IEDB peptide-MHC binding, purified MHC/direct/fluorescence; filed as Kd, often an IC50 or EC50 that approximates it; bounds were set here for any values at or beyond the usual limits of such assays
# conditionParameters: source organism: Shigella flexneri
pKd: −log10 of the molar value.
observedProperty: pKd

What value of measured pKd is listed for VVISKKDTY ?
≤ 4.70

---

Kindly state Kd for each of the entries shown.
# targetOrSystem: HLA-A*68:01
# assayExplanation: IEDB peptide-MHC binding, purified MHC/competitive/radioactivity; filed as Kd, often an IC50 or EC50 that approximates it; bounds were set here for any values at or beyond the usual limits of such assays
# conditionParameters: source organism: Mammarenavirus whitewaterense
Answer format reminder: number followed by unit.

What value of measured Kd is listed for RNPYENVLYK ?
3490 nM

Then LFYVSSIFLH ?
980 nM

---

# targetOrSystem: HLA-A*24:02
# assayExplanation: IEDB peptide-MHC binding, purified MHC/direct/fluorescence; filed as Kd, often an IC50 or EC50 that approximates it; bounds were set here for any values at or beyond the usual limits of such assays
# conditionParameters: source organism: Giardia lamblia ATCC 50803
observedProperty: Kd

Form field - read-out: Kd; system: HLA-A*24:02; submitted item: DEKPKVMEG
≥ 20 µM

Then YLDMVLAFL ?
≥ 20 µM

---

# targetOrSystem: HLA-B*27:03
# assayExplanation: IEDB peptide-MHC binding, purified MHC/direct/fluorescence; filed as Kd, often an IC50 or EC50 that approximates it; bounds were set here for any values at or beyond the usual limits of such assays
# conditionParameters: source organism: Burkholderia mallei ATCC 23344
observedProperty: Kd

What value of measured Kd is listed for NVMDPMHGA ?
≥ 20 µM

---

# targetOrSystem: HLA-A*01:01
# assayExplanation: IEDB peptide-MHC binding, purified MHC/competitive/fluorescence; bounds were set here for any values at or beyond the usual limits of such assays
# conditionParameters: source organism: Vaccinia virus
observedProperty: IC50

Form field - read-out: IC50; system: HLA-A*01:01; submitted item: AVDRGCLRI
≥ 183 µM

---

# targetOrSystem: HLA-B*27:05
# assayExplanation: IEDB peptide-MHC binding, purified MHC/competitive/fluorescence; filed as Kd, often an IC50 or EC50 that approximates it; bounds were set here for any values at or beyond the usual limits of such assays
# conditionParameters: source organism: Burkholderia mallei SAVP1
pKd: −log10 of the molar value.
observedProperty: pKd

What value of measured pKd is listed for NVMDPMHGA ?
≤ 5.30

---

# targetOrSystem: HLA-A*31:01
# assayExplanation: IEDB peptide-MHC binding, purified MHC/competitive/fluorescence; filed as Kd, often an IC50 or EC50 that approximates it; bounds were set here for any values at or beyond the usual limits of such assays
# conditionParameters: source organism: Giardia lamblia ATCC 50803
observedProperty: pKd
// pKd: -log10(molar conc.)

What value of measured pKd is listed for RLYPFGSYY ?
7.50

---

# targetOrSystem: HLA-A*24:02
# assayExplanation: IEDB peptide-MHC binding, purified MHC/direct/fluorescence; filed as Kd, often an IC50 or EC50 that approximates it; bounds were set here for any values at or beyond the usual limits of such assays
# conditionParameters: source organism: Influenza A virus (A/duck/Mongolia/47/2001(H7N1))
observedProperty: Kd

What value of measured Kd is listed for NESGRLIDF ?
≥ 20 µM

---

# targetOrSystem: HLA-A*01:01
# assayExplanation: IEDB peptide-MHC binding, purified MHC/competitive/fluorescence; filed as Kd, often an IC50 or EC50 that approximates it; bounds were set here for any values at or beyond the usual limits of such assays
# conditionParameters: source organism: Human immunodeficiency virus 1
observedProperty: Kd

What value of measured Kd is listed for RSLYNTVAVLY ?
≥ 20 µM
